Numbers sourced from patent US20070185176A1.

# assayed.system: human recombinant heparanase (h-hpa) (Homo sapiens, UniProt Q9Y251)
# Sequence (Q9Y251 158-543 limits assumed): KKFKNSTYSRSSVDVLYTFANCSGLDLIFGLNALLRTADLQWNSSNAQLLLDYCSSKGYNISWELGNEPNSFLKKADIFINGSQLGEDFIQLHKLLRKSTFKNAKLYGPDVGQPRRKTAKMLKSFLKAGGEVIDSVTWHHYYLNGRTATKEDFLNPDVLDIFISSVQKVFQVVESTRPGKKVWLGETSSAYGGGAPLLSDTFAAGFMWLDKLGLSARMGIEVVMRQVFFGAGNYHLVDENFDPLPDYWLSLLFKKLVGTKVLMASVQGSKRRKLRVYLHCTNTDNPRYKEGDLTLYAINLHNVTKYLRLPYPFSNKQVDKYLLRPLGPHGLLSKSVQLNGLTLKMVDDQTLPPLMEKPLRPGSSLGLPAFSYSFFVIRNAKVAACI
# Sequence (Q9Y251 36-109 limits assumed): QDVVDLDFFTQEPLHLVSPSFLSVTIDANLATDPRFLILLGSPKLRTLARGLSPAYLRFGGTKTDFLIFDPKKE
# assay.comment: In vitro dimethylmethylene blue (DMB) assay for heparanase activity
pIC50: −log10 of the molar value.
Label scheme for pIC50: lower than 6 is No, 6 and above is Yes.

compound	assayed.system	category.label
CCCCCCCCCCCCCCCCCC1=NN(c2ccc(Oc3ccccc3)cc2S(=O)(=O)O)C(=O)C1/N=N/c1ccc(OC)cc1 (stereo not shown)	human recombinant heparanase (h-hpa) (Homo sapiens, UniProt Q9Y251)	Yes
CCCCCCCCCCCCCCCCCC1=NN(c2ccc(Oc3ccccc3)c(S(=O)(=O)O)c2)C(=O)C1	human recombinant heparanase (h-hpa) (Homo sapiens, UniProt Q9Y251)	Yes
CCCCCCCCCCCCCCCCCC(=O)Nc1ccc(NC(=O)c2cc(/N=N/c3cc(C(=O)O)c(O)cc3O)c3ccccc3c2O)cc1S(=O)(=O)O	human recombinant heparanase (h-hpa) (Homo sapiens, UniProt Q9Y251)	Yes
CCN1C(=O)/C(=C2\SC(=S)N(CCCCCCCCCCC(=O)O)C2=O)c2ccccc21	human recombinant heparanase (h-hpa) (Homo sapiens, UniProt Q9Y251)	No
CCCCCCCCCCCCCCCCCC1=NN(c2ccc(Oc3ccccc3)c(S(=O)(=O)O)c2)C(=O)C1/N=N/c1ccc(O)c(OC)c1 (stereo not shown)	human recombinant heparanase (h-hpa) (Homo sapiens, UniProt Q9Y251)	Yes
CCCCCCCCCCCCCCCCCC1=NN(c2ccc(Oc3ccccc3)c(S(=O)(=O)O)c2)C(=O)C1/N=N/c1cccc(O)c1 (stereo not shown)	human recombinant heparanase (h-hpa) (Homo sapiens, UniProt Q9Y251)	Yes
